# SYSTEM_NAME: human GnRH receptor (Homo sapiens)
# Construct: expressed in transfected cells; host or cells: HEK 293 (hGnRH-R/293, from Dr. Stuart Sealfon)
# Sequence (P30968 whole entry): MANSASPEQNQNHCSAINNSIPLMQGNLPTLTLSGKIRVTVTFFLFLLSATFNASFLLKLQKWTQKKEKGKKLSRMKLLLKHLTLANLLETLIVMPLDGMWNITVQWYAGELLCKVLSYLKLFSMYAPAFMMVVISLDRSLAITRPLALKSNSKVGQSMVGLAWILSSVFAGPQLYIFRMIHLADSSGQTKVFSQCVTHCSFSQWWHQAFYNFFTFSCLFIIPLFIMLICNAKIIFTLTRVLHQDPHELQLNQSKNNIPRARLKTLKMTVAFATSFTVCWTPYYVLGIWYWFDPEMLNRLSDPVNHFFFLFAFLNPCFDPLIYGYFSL
# PROCEDURE_TEXT: Radioligand binding, 125I-GnRH-A displacement, membranes of HEK 293 cells with human GnRH receptor
# COND: 1 uM; read-out: % Inhib. @ 1 uM hGnRH
# Description: All compounds were diluted in 1% DMSO (final assay concentration) in binding assay buffer. […] Reactions were terminated by rapid filtration onto 96-well Packard GF/C filters soaked in 0.1% polyethyleneimine. Filters were washed three times with PBS buffer, dried and counted on a Packard Topcount by liquid scintillation counting. […] The reaction mixture was vortexed and incubated for 1 min at room temperature. […] Fractions were assessed for biological activity by radioligand binding. […]
Everything with inhibition at 1 µM lower than 10% is criterion not met; everything else, including exactly 10%, is criterion met.

# check: inhibition at 1 µM of Cc1cc2c(cc1Cc1ccc(C(=O)NCc3cccc(C)c3C)o1)C(C)(C)CCC2(C)C [drawing 1192] is greater than or equal to 10%
criterion met

Tell me whether inhibition at 1 µM is at least 10% here: Cc1cc2c(cc1Cc1ccc(C(=O)NCc3nc4ccccc4[nH]3)o1)C(C)(C)CCC2(C)C [drawing 1053]
criterion met

Assess whether reported inhibition at 1 µM for `Cc1cc2c(cc1Cc1ccc(C(=O)NC3=NN(c4c(Cl)cc(Cl)cc4Cl)C(=O)C3)o1)C(C)(C)CCC2(C)C` sits at 10% or higher.
criterion not met

Hello, I need to know if Cc1cc2c(cc1Cc1ccc(C(=O)NCCN3CCCCC3)o1)C(C)(C)CCC2(C)C [drawing 982] has measured inhibition at 1 µM not below 10%. Thanks!
criterion met

Determine whether measured inhibition at 1 µM meets or exceeds 10% for `Cc1cc2c(cc1Cc1ccc(C(=O)N3CCN(c4ccncc4)CC3)o1)C(C)(C)CCC2(C)C`
criterion not met

inhibition at 1 µM >= 10% for `Cc1cc2c(cc1Cc1ccc(C(=O)N3CCN(c4cnccn4)CC3)o1)C(C)(C)CCC2(C)C` ?
criterion not met

Determine whether measured inhibition at 1 µM meets or exceeds 10% for `Cc1cc2c(cc1Cc1ccc(C(=O)N(Cc3ccccc3)Cc3ccccc3)o1)C(C)(C)CCC2(C)C`
criterion not met

Could you verify whether the entry `Cc1cc2c(cc1Cc1ccc(C(=O)N3CCN(c4ccccc4C#N)CC3)o1)C(C)(C)CCC2(C)C` shows inhibition at 1 µM of no less than 10%?
criterion not met

Could you please find out whether Cc1cc2c(cc1Cc1ccc(C(=O)NCCCN(C)c3ccccc3)o1)C(C)(C)CCC2(C)C [drawing 1000] has inhibition at 1 µM that meets 10% or exceeds it?
criterion met

Check the entry Cc1cc2c(cc1Cc1ccc(C(=O)N(C)CC(O)c3cccc(O)c3)o1)C(C)(C)CCC2(C)C (centres unmarked) : does inhibition at 1 µM equal or exceed 10%?
criterion not met

Determine whether this compound has inhibition at 1 µM no lower than 10%: `Cc1cc2c(cc1Cc1ccc(C(=O)NCC(C)(c3ccccc3)c3ccccc3)o1)C(C)(C)CCC2(C)C`
criterion met

Check if inhibition at 1 µM >= 10% (inclusive). Item: Cc1cc2c(cc1Cc1ccc(C(=O)NCc3ccc(-c4csnn4)cc3)o1)C(C)(C)CCC2(C)C [drawing 1013]
criterion met

Has Cc1cc2c(cc1Cc1ccc(C(=O)NC(c3ccccc3)c3ccc(Cl)cc3)o1)C(C)(C)CCC2(C)C (centres unmarked) a recorded inhibition at 1 µM greater than or equal to 10%?
criterion not met

Confirm if inhibition at 1 µM reported for the compound Cc1cc2c(cc1Cc1ccc(C(=O)NCCCN3CCCCC3)o1)C(C)(C)CCC2(C)C [drawing 1050] is 10% or above.
criterion not met

Answer whether inhibition at 1 µM of Cc1cc2c(cc1Cc1ccc(C(=O)N3CCN(c4ccc(Cl)cc4)C(C)C3)o1)C(C)(C)CCC2(C)C (centres unmarked) is greater than or equal to 10%.
criterion not met

Tell me whether inhibition at 1 µM is at least 10% here: Cc1cc2c(cc1Cc1ccc(C(=O)NCCc3cccc(F)c3)o1)C(C)(C)CCC2(C)C [drawing 1181]
criterion met

Test whether the compound Cc1cc2c(cc1Cc1ccc(C(=O)NCc3ccc(Br)cc3)o1)C(C)(C)CCC2(C)C [drawing 1234] records inhibition at 1 µM of 10% or higher.
criterion met

Decide: is the reported value of inhibition at 1 µM for Cc1cc2c(cc1Cc1ccc(C(=O)NCCc3c[nH]c4ccc(Cl)cc34)o1)C(C)(C)CCC2(C)C [drawing 1007] equal to or greater than 10%?
criterion met

Is reported inhibition at 1 µM greater than or equal to 10% here: Cc1cc2c(cc1Cc1ccc(C(=O)NCc3ccccn3)o1)C(C)(C)CCC2(C)C [drawing 984]
criterion met

// inclusive: inhibition at 1 µM at least 10%? input: COc1ccc(CCNC(=O)c2ccc(Cc3cc4c(cc3C)C(C)(C)CCC4(C)C)o2)cc1 [drawing 1173]
criterion met

Exam item: decide whether the reported inhibition at 1 µM for COc1cc(CCNC(=O)c2ccc(Cc3cc4c(cc3C)C(C)(C)CCC4(C)C)o2)cc(OC)c1 [drawing 1148] is at least 10%.
criterion met

hey, is inhibition at 1 µM for this one >= 10%? `Cc1cc2c(cc1Cc1ccc(C(=O)N3CCN(c4ccc(C(F)(F)F)cn4)CC3)o1)C(C)(C)CCC2(C)C`
criterion not met

Confirm if inhibition at 1 µM reported for the compound Cc1cc2c(cc1Cc1ccc(C(=O)NCCC3CCCN3C)o1)C(C)(C)CCC2(C)C (centres unmarked) [drawing 977] is 10% or above.
criterion met

State whether the measured inhibition at 1 µM reaches 10%, counting equality as reaching it, for Cc1cc2c(cc1Cc1ccc(C(=O)NC(C#N)c3ccccc3)o1)C(C)(C)CCC2(C)C (centres unmarked) [drawing 1233]
criterion met

Hi team, for Cc1cc2c(cc1Cc1ccc(C(=O)NCCCc3ccccc3)o1)C(C)(C)CCC2(C)C [drawing 990] , is the recorded inhibition at 1 µM at or above 10%?
criterion met

Hello, I need to know if Cc1cc2c(cc1Cc1ccc(C(=O)NCC3CCN(C(=N)N)CC3)o1)C(C)(C)CCC2(C)C [drawing 1063] has measured inhibition at 1 µM not below 10%. Thanks!
criterion met

Entry Cc1cc2c(cc1Cc1ccc(C(=O)N(Cc3ccccc3F)C3CCN(Cc4ccccc4)C3)o1)C(C)(C)CCC2(C)C (centres unmarked) : is its inhibition at 1 µM no less than 10%?
criterion not met

In plain terms: is recorded inhibition at 1 µM at least 10% for `Cc1cc2c(cc1Cc1ccc(C(=O)NCCCC(=O)NC(c3ccccc3)c3ccccc3)o1)C(C)(C)CCC2(C)C` ?
criterion met

Is it the case that Cc1cc2c(cc1Cc1ccc(C(=O)NCCNc3ccccc3)o1)C(C)(C)CCC2(C)C [drawing 1080] has inhibition at 1 µM reaching or exceeding 10%?
criterion met

Assess whether reported inhibition at 1 µM for Cc1cc2c(cc1Cc1ccc(C(=O)NC(C)CCc3ccccc3)o1)C(C)(C)CCC2(C)C (centres unmarked) [drawing 1130] sits at 10% or higher.
criterion met

Given `Cc1cc2c(cc1Cc1ccc(C(=O)N(CCO)Cc3ccccc3)o1)C(C)(C)CCC2(C)C` , state whether its inhibition at 1 µM is at least 10%.
criterion not met
